Give measured pIC50 for each item. Keep answers brief.
TGT: Glutamate NMDA receptor; GRIN1/GRIN2A (Homo sapiens, UniProt Q05586+Q12879)
Sequence (Q12879 whole entry, other chains not shown): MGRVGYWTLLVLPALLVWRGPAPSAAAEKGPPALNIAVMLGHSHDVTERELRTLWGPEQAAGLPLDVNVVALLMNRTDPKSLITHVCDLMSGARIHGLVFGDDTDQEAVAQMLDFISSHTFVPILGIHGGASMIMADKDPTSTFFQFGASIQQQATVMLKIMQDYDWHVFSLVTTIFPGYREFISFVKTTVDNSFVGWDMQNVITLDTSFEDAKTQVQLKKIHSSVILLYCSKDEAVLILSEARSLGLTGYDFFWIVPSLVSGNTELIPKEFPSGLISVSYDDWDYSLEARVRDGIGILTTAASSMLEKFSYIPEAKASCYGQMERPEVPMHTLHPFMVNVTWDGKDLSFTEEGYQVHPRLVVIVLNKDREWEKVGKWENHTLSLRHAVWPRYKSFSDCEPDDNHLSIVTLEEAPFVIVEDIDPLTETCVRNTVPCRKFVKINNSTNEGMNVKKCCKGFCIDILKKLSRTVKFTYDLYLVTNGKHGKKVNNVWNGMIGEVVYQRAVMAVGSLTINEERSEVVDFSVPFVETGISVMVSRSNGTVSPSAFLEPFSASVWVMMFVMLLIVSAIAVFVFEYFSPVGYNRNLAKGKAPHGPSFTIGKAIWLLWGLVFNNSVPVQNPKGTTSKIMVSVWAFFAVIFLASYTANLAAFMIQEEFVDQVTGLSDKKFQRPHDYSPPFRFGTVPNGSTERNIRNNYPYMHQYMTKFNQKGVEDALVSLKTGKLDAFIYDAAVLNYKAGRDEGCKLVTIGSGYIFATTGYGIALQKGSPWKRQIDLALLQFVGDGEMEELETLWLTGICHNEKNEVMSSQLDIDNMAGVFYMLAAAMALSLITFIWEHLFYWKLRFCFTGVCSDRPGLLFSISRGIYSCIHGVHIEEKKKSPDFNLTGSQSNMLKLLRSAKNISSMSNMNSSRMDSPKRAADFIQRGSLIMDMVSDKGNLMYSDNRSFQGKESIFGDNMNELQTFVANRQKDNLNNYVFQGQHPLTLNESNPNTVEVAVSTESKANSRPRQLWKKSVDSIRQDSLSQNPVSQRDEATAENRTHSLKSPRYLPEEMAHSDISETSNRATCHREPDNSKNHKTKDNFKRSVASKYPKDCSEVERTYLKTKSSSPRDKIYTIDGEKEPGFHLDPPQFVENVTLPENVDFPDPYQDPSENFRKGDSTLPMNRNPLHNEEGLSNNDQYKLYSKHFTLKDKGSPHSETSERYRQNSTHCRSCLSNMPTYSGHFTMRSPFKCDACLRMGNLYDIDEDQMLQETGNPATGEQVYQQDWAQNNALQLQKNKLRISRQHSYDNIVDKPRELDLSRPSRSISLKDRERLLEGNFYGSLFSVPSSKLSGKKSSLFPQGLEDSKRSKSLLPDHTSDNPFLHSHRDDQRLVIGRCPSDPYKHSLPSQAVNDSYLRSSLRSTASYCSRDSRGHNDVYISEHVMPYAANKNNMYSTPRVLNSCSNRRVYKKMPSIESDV
RUN DESCRIPTION: Antagonist activity against NR1-1a/NR2A NMDA receptor (unknown origin) expressed in mouse recombinant L(tk-) cells assessed as inhibition of glycine and glutamate induced excitotoxicity incubated for 12 hrs by LDH assay
Interpret pIC50 as the negative base-10 log of the concentration measured in mol/L.

INPUT: # return pIC50 for c1ccc(C2(N3CCCCC3)CCCCC2)cc1 , test system: Glutamate NMDA receptor; GRIN1/GRIN2A (Homo sapiens, UniProt Q05586+Q12879)
OUTPUT: 7.93

INPUT: Report pIC50 on Glutamate NMDA receptor; GRIN1/GRIN2A (Homo sapiens, UniProt Q05586+Q12879) for this entry: NC[C@H]1COC[C@@](c2ccccc2)(C2CCCCC2)O1 (racemic)
OUTPUT: 7.75

INPUT: # return pIC50 of c1ccc(C2(c3ccccc3)OC[C@H]([C@@H]3CCCCN3)O2)cc1 [DEXOXADROL] (system: Glutamate NMDA receptor; GRIN1/GRIN2A (Homo sapiens, UniProt Q05586+Q12879))
OUTPUT: 8.01

INPUT: # return pIC50 of NCC1COCC(c2ccccc2)(c2ccccc2)O1 (stereo unspecified) (system: Glutamate NMDA receptor; GRIN1/GRIN2A (Homo sapiens, UniProt Q05586+Q12879))
OUTPUT: 7.62

INPUT: Would you please give the reported pIC50 of NC[C@@H]1COC[C@@](c2ccccc2)(C2CCCCC2)O1 (racemic) with Glutamate NMDA receptor; GRIN1/GRIN2A (Homo sapiens, UniProt Q05586+Q12879)?
OUTPUT: 7.15

INPUT: Check Glutamate NMDA receptor; GRIN1/GRIN2A (Homo sapiens, UniProt Q05586+Q12879) data and give pIC50 for CN[C@]1(c2ccccc2Cl)CCCCC1=O .
OUTPUT: 7.94

Where these numbers come from: ChEMBL document CHEMBL3632596
